System: MOLT-4 leukemia
Experiment: NCI tumour cell line growth inhibition, 48 h
measurement-label: TGI (µM)

> print(dat)
                                    compound           target  unit.abbreviation  limit.qualifier  data.value
 1  CC1=NC2(CCCCC2)N(Cl)C(=O)C1SC#N (stereo not drawn)  MOLT-4 leukemia                 µM                =        23.7
 2  CN(C)c1ccc(/C=N/n2c(-c3ccccc3)nc3ccccc3c2=O)cc1  MOLT-4 leukemia                 µM                >         100
 3          O=C(/C=C/C=C/c1ccccc1)CCc1ccccc1  MOLT-4 leukemia                 µM                =        56.1
 4  COc1cc(NC(=O)c2cc(OC)c3ccn(C)c3c2)cc2c1C[C@]1(C)CC[C@@H](O)C(C)(C)[C@H]1O2  MOLT-4 leukemia                 µM                =          15
 5                 NNC(=Nc1ccccc1)SCc1ccccc1  MOLT-4 leukemia                 µM                >         100
 6                     CC1(C)COCN1COC1CCCCC1  MOLT-4 leukemia                 µM                =        83.9
 7  Cc1ccc(S(=O)(=O)Nc2nc3ccccc3c(=O)n2C2CCCCC2)cc1  MOLT-4 leukemia                 µM                >         100
 8  Cc1ccc(C2(N3CCCC3)OC(C)(C)c3cccc4cccc2c34)cc1 (stereo not drawn)  MOLT-4 leukemia                 µM                >         100
 9  CCOC(=O)CN=C1Nc2ccccc2C(=O)N2CSCC12 (stereo not drawn)  MOLT-4 leukemia                 µM                >         100
10  CCCc1ccc(S(=O)(=O)N[C@H]2CC[C@H]3[C@@H]4CCc5cc(O)ccc5[C@H]4CC[C@]23C)cc1  MOLT-4 leukemia                 µM                =        9.18
11  CC1(C)NCCC[C@]2(C)[C@H]3C=CC4=C5C[C@](C)(CO)CC[C@]5(C)CC[C@@]4(C)[C@]3(C)CC[C@@H]12  MOLT-4 leukemia                 µM                =         6.8
12  O=C(Nc1ccc(-n2cc(-c3ccncc3)c(-c3ccc(Cl)c(O)c3)n2)cc1)Nc1cc(C(F)(F)F)cc(C(F)(F)F)c1  MOLT-4 leukemia                 µM                =        7.37
13  N#CCc1ccc(C(C#N)/C(CCCC(=O)Nc2cccc([N+](=O)[O-])c2)=N\NC(=O)NN)cc1 (stereo not drawn)  MOLT-4 leukemia                 µM                >         100

====

System: HCT-116 colon
Test: NCI tumour cell line growth inhibition, 48 h; in the data active means GI50 below about 0.43 µM; inactive means the rest
Outcomes: active, inactive

> print(dat)
                                    molecule       cat
 1  COc1c(C)c2c(c(O)c1C/C=C(\C)CCC(=O)OCCN1CCOCC1)C(=O)OC2    active
 2  COc1ccc(/C=C2\CN(C(=O)C(Cl)Cl)C/C(=C\c3ccc(OC)c(OC)c3)C2=O)cc1OC    active
 3  C=C1C(=O)O[C@@H]2C1C[C@@H](O)/C(C)=C/C/C=C(\C)CCC[C@H](C)[C@H]2OC(C)=O (stereo not given in full)  inactive
 4  Fc1ccc(Oc2nccc(-c3c(-c4ccc(F)cc4)ncn3C3CCNCC3)n2)cc1  inactive
 5  N#CC1=C(N)NC(=S)NC12Nc1ccccc1O2 (stereo not given)  inactive
 6  O=C1CCCCCCCC/C=C/CCC(c2ccco2)O1 (stereo not given)  inactive
 7  Nc1nc(Nc2ccc3c(c2)CC[C@@H](N2CCCC2)CC3)nn1-c1cc2c(nn1)-c1ccccc1CCC2  inactive
 8  CC1(C)NCCC[C@]2(C)[C@H]3C=CC4=C5C[C@](C)(CO)CC[C@]5(C)CC[C@@]4(C)[C@]3(C)CC[C@@H]12  inactive
 9  CC(=O)C1CC2(c3ccc(C)cc3)C(c3ccc(C)cc3)=C(c3ccc(C)cc3)C1(c1ccc(C)cc1)S2=O (stereo not given)  inactive
10  Cc1cc(C)c(O)c(CNCCCCCCNCc2cc(C)cc(C)c2O)c1  inactive

====

Reported TGI by item:
Tested on: MOLT-4 leukemia
Assay: NCI tumour cell line growth inhibition, 48 h
measurement-label: TGI

> print(dat)
                                    molecule  measurement.label  data.value
 1  COc1ccc2c(c1)nc(N)c1c3cc(OC)c(OC)cc3cn21                TGI     12.6 µM
 2      c1ccc2[nH]c(SSc3nc4ncncc4[nH]3)nc2c1                TGI    > 100 µM
 3  NCCCN(CCCN)CCCNCc1c2ccccc2c(CNCCCN(CCCN)CCCN)c2ccccc12                TGI     69.8 µM
 4  COc1ccc2nc(-c3ccccc3)cc(Nc3ccc(C(C)=O)cc3)c2c1                TGI     4.93 µM
 5  CCOc1cc2c(cnc3c4cc(OC)c(OC)cc4ccc23)cc1OC                TGI    > 100 µM
 6  O=C1CSC(c2cccc(Cl)c2)N1c1c(O)c(Cl)cc(Br)c1Cl (stereo not drawn)                TGI     57.9 µM
 7  CC(=O)[C@H]1CC[C@H]2[C@@H]3CCC4=CC(=O)CC[C@]4(C)[C@H]3CC[C@]12C                TGI     35.2 µM
 8  Cc1ncc([N+](=O)[O-])n1CCNS(=O)(=O)CCCn1ccnc1[N+](=O)[O-]                TGI    > 100 µM
 9  N/N=C(\CC1OC(=O)c2ccccc21)c1ccco1 (stereo not drawn)                TGI    > 100 µM
10      O=C1C=C(N2CCCC2)C(=O)c2c(O)ccc(O)c21                TGI     > 10 µM
11  O=c1[nH]nc(-c2ccc([N+](=O)[O-])cc2)n1/N=C/c1ccc([N+](=O)[O-])cc1                TGI    > 100 µM
12  CC(=O)OC(CC(C)C)P1(=O)N(CC(C)(C)C)[C@@H]2CCCC[C@H]2N1CC(C)(C)C (stereo partly drawn)                TGI     25.3 µM
13  N#Cc1ccccc1NC(=O)/C(=N\NC(=O)c1ccncc1)C(c1cnc2ccc([N+](=O)[O-])cc2n1)[N+](=O)[O-] (stereo not drawn)                TGI    > 100 µM
14  CC1(CCc2ccccc2)CC1(Br)Br (stereo not drawn)                TGI       56 µM
15  CC1(C)OC[C@@H]([C@@]2(CO[Si](C)(C)C(C)(C)C)CC=CC(=O)O2)O1                TGI    > 100 µM
16  Fc1ccc(Oc2nccc(-c3c(-c4ccc(F)cc4)ncn3C3CCNCC3)n2)cc1                TGI     > 25 µM
17       COc1ccc2c([nH]c3cc(O)c(C)cc32)c1C=O                TGI     > 25 µM
18       Cn1nc(-c2ccccc2)c(N=[N+]=[N-])cc1=O                TGI    > 100 µM
19  c1nncn1C12C3C4C5C3C1C5C42 (stereo not drawn)                TGI    > 100 µM
20  Cc1c(NC(=S)N/N=C\C(=N/NC(=S)Nc2c(C)n(C)n(-c3ccccc3)c2=O)c2ccccc2)c(=O)n(-c2ccccc2)n1C                TGI    > 100 µM
21  O=C(Nc1ccc(-n2cc(-c3ccncc3)c(-c3ccc(O)c(Cl)c3)n2)cc1)c1cc(Cl)cc(Cl)c1                TGI   > 32.5 µM
22  O=S(=O)(O)c1ccc2c(N=Nc3ccccc3)c(O)c(S(=O)(=O)O)cc2c1                TGI    > 100 µM
23  N#CC1=C(N)N=C(N2CCCCC2)C(C#N)C12Nc1ccccc1S2 (stereo not drawn)                TGI    > 100 µM
24              CCOC(=O)c1[nH]cnc1/N=N/N(C)N                TGI    > 100 µM
25  COc1cc2c(cc1OC)C1=Cc3ccc(OC)c(OC)c3C(C#N)N1CC2 (stereo not drawn)                TGI    > 100 µM
26                            C1CNCCNCCNCCN1                TGI    > 100 µM
27  O=C(CCCC1Cc2ccccc2C1=O)c1ccccc1 (stereo not drawn)                TGI    > 100 µM
28  CC(=O)Nc1nc(SCc2ccccc2)c2ncn(C(C)=O)c2n1                TGI    > 100 µM
29         Nc1ccc(C(=O)c2ccc(N)c(Br)c2)cc1Br                TGI     59.4 µM
30     CN(C)Cc1cc(C(C)(C)C)cc(CNC2CCCCC2)c1O                TGI     33.5 µM
31  O=[N+]([O-])c1ccc(-c2nc(N(CCO)CCO)c3ccccc3n2)o1                TGI   > 38.9 µM
32  CCN(CC)c1ccc(/C=c2\nc(-c3ccccc3)n3c2nc2ccccc23)cc1                TGI    > 100 µM
33  CC(/C=N/N(C)C1=NCCCCN1)=N/N(C)C1=NCCCCN1                TGI    > 100 µM
34  COc1cc(C(=O)O[C@H](C(=O)NCCNC(=O)[C@@H](OC(=O)c2cc(OC)cc3c(C)cccc23)[C@]2(C)CO2)[C@]2(C)CO2)c2cccc(C)c2c1                TGI    > 100 µM
35  CCOP(=O)(CC1CC(O)(CNc2cc(Cl)nc(N)n2)C1)OCC (stereo not drawn)                TGI    > 100 µM
36  Cc1cc(C)c(O)c(CNCCCCCCNCc2cc(C)cc(C)c2O)c1                TGI      3.9 µM
37  COc1ccc2c(c1)C1Oc3ccccc3CC1(O)CO2 (stereo not drawn)                TGI    > 100 µM
38  CCCN=C1Nc2ccccc2[C@@H]2N(C)c3ccccc3C(C)C[C@]12C (stereo partly drawn)                TGI     45.7 µM
39     Cc1cccc(C)c1NC(=O)/C(Cl)=C(/Cl)C(=O)O                TGI     27.5 µM
40      CC(C)=NNc1cnnc2ccc([N+](=O)[O-])cc12                TGI    > 100 µM
41           O=C(CNC(=O)OCc1ccccc1)Oc1ccccc1                TGI    > 100 µM
42  N#CC1=C(N)OC2=C(COc3ccc(F)cc32)C1c1ccc(Cl)cc1 (stereo not drawn)                TGI    > 100 µM
43  O=C1c2cc([N+](=O)[O-])cnc2S(=O)(=O)N1c1ccc(Br)cc1                TGI    > 100 µM

Values were extracted from PubChem BioAssay (NCI).
